Origin of the recorded values: PubChem BioAssay AID652115

- Assayed system: NAD-dependent protein deacylase sirtuin-5, mitochondrial (Homo sapiens) (UniProt Q9NXA8)
- Sequence (Q9NXA8 whole entry, looked up): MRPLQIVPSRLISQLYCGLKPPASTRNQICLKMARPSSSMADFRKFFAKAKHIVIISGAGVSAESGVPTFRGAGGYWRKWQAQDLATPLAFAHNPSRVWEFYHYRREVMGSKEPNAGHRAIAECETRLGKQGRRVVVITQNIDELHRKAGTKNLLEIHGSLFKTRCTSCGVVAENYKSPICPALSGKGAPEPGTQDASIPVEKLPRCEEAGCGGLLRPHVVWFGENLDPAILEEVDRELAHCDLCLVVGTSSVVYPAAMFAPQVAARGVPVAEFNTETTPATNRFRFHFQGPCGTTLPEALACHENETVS
- Measurement notes: blockers of sirtuin-5 deacylase activity – biochemical, fluorescence imaging, single point, set 5, primary screen (AID 652115)
- Condition info: Purified SirT5, succinyl-peptide AMC, trypsin-coupled fluorescence; at 15 µM; stronger effect = higher value
Among all 330,000 compounds or so, about 3,800 (1.2%) were called active. What follows is part of a selection rich in actives, with near analogues and random picks from the rest.
// reported inhibition for each item listed
Express your answer in %, writing the number without its unit.

C=CC1=C(C(=O)O)N2C(=O)[C@@H](NC(=O)/C(=N\OCC(=O)O)c3csc(N)n3)[C@H]2SC1 = 31.1
Cc1ccc(NC(=O)Cc2nnc(SCC(=O)Nc3nncs3)n2C)cc1 = 17.8

Data request, read-out inhibition, for "Cc1cc(/C=N/Nc2ccc([N+](=O)[O-])cn2)c(C)n1-c1cccc(C(=O)O)c1"
17.7

// returns reported inhibition for input CCN(CC(=O)NC1CCS(=O)(=O)C1)S(=O)(=O)c1ccccc1 (stereo not given)
20.8

Fill blank: measured inhibition of the molecule "Cc1ccc(SCC(=O)Nc2nncs2)cc1" is ____.
-2.47

Please look up its inhibition: "Cn1c(CC(=O)Nc2ccc(F)cc2)nnc1SCC(=O)NC1CCCCC1"
0.115

What does the record list as inhibition for "CCN(CC(=O)Nc1ccc2c(c1)OCO2)S(=O)(=O)c1ccccc1" ?
-11.2

Give the measured inhibition of "CC(C)c1ccc(C=NNc2ccc([N+](=O)[O-])cn2)cc1" .
1.24

Can you share its inhibition? I mean this molecule: Cc1cc(C)cc(C(=O)NC2C(=O)N3C(C(=O)O)=C(CSc4nnc(C)s4)CSC23)c1 (stereo not given)
-0.622

# get_value(readout='inhibition', item= "CCCC#Cc1cnc2c(c1)C(=O)N([C@H](C)CO)C[C@H](C)[C@@H](CN(C)C(=O)c1cccnc1)O2" )
-3.74

###

- Assayed system: NAD-dependent protein deacylase sirtuin-5, mitochondrial (Homo sapiens) (UniProt Q9NXA8)
- Measurement notes: blockers of sirtuin-5 deacylase activity – biochemical, fluorescence imaging, single point, set 5, primary screen (AID 652115)
- Condition info: Purified SirT5, succinyl-peptide AMC, trypsin-coupled fluorescence; at 15 µM
About 3,800 (1.2%) of roughly 330,000 compounds were called active. Rule as the data show it: active = inhibition above about 15%; inconclusive = no clear call, values can overlap the other calls; inactive = below that. This is one part of a sample in which actives are shown more often than they occur.
Form entry, call: pick from active, inactive

CCNC(=O)C[C@@H]1CC[C@H]2[C@@H](COC[C@@H](O)CN2C(=O)c2cc(Cl)cc(Cl)c2)O1 = inactive

What call does the record list for "Cc1cccc(S(=O)(=O)N2C[C@@H]3[C@H](c4ccccc42)[C@@H](CO)N3C(=O)c2ccccc2)c1" ?
inactive

What is the recorded call for this compound in the test? "CCC(=O)Nc1ccc2c(c1)C(=O)N(C)C[C@@H](OC)[C@H](C)CN(Cc1ccccc1C(=O)O)[C@@H](C)CO2"
inactive

Recorded test outcome, item "Cc1ccc(S(=O)(=O)N2C[C@@H]3CCCC[C@@H]3[C@@H](C)[C@H]2c2cn(Cc3ccccc3)c3ccc(F)cc23)cc1"
active

Check the results log: what was the call for Cc1ccccc1NC(=O)Cn1c(=O)n(CC2CCCO2)c(=O)c2ccccc21 (stereo not drawn) ?
inactive

What classification did "C[C@H]1CN([C@@H](C)CO)C(=O)c2cc(C3=CCCCC3)cnc2O[C@@H]1CN(C)C(=O)c1ccc(F)cc1" end up with in this test?
inactive

What was the test verdict on "COCC#Cc1cnc2c(c1)C(=O)N([C@H](C)CO)C[C@H](C)[C@H](CN(C)C(=O)CCN1CCCCC1)O2" ?
inactive

I would be grateful if you could indicate the recorded call for "CCCC(=O)N1CC2(C1)CN(C(=O)Nc1cccc(F)c1)[C@@H](CO)c1c2c2ccc(OC)cc2n1C" .
inactive

Dear colleague, could you share the recorded outcome for "CN(C)CC(=O)N[C@@H]1C[C@@H]2O[C@H](CO)CC[C@@H]2O[C@@H]1CCc1ccc(C#Cc2ccccc2)cc1" when you have a moment?
inactive

For "CO[C@@H]1CN(C)C(=O)c2ccc(NC(=O)Nc3ccccc3)cc2OC[C@H](C)N(C(=O)CC2CC2)C[C@@H]1C" , which call appears in the assay record?
inactive

For "CCCNC(=O)N1[C@H](CO)[C@@H](c2ccc(-c3ccc(C(=O)N(C)C)cc3)cc2)[C@@H]1C#N" , which call appears in the assay record?
inactive

Hey, what did the test say about "O=C(C[C@H]1CC[C@H]2[C@@H](COC[C@@H](O)CN2C(=O)c2ccc3c(c2)OCO3)O1)NC1Cc2ccccc2C1" ?
inactive

What was the test verdict on "O=C(Cc1ccccn1)N1CC(=O)N2[C@H](CO)[C@@H](c3ccc(C#CC4CCCC4)cc3)[C@H]2C1" ?
inactive

Look up the recorded call for "Cc1ccc(F)cc1S(=O)(=O)N[C@@H]1CCN(Cc2ccc(-c3ccccc3)cc2)C1" in this test.
inactive

Assay outcome for "COc1cccc(S(=O)(=O)Nc2ccc3c(c2)C(=O)N(C)C[C@@H](OC)[C@@H](C)CN[C@@H](C)CO3)c1" : what was it?
inactive
